TARGET: B-Raf kinase (Homo sapiens, UniProt P15056)
Construct: purchased Sigma
Sequence (P15056 416-766): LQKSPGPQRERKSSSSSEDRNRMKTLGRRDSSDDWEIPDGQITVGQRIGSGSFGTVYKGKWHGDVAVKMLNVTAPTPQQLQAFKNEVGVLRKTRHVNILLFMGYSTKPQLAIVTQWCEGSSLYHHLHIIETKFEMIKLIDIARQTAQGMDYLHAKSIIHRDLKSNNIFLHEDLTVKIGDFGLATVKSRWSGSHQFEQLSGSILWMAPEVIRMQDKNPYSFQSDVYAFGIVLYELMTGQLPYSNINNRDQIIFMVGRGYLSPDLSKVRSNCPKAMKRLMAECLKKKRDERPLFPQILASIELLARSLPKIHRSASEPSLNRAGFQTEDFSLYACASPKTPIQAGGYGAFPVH
PROTOCOL SUMMARY: Biochemical assay for B-Raf (coupled pyruvate kinase/lactate dehydrogenase)
RUN PARAMETERS: Table 3; read-out: BRAF
pIC50: −log10 of the molar value.
Overview of reported pIC50 across a group of molecules:

Problem: Quick one: pIC50 for CNC(=O)c1cc(-c2cc(-c3cc(NC(=O)c4cc(C(F)(F)F)cnn4)ccc3C)cc(C)n2)ccn1 ?
Result: 6.30 to 7.00

---

Tested on: Pa16c cells
PROTOCOL SUMMARY: Pa16c cell proliferation assay (resazurin)
Assay type: cell-based
RUN PARAMETERS: Table 2, inhibition of cell proliferation
pIC50: −log10 of the molar value.
MEASURED QUANTITY: pIC50

Below, 2 molecules whose answers are already recorded.
CNC(=O)c1cc(-c2cc(-c3cc(NC(=O)c4cc(C5CC5)cnn4)ccc3C)cc(OCCO)n2)ccn1
6.30 to 7.00
CNC(=O)c1cc(-c2cc(-c3cc(NC(=N)c4cc(C(F)(F)F)cnn4)ccc3C)ccn2)ccn1
5.00 to 6.00

Please turn your attention to the following entry.
Problem: Item CNC(=O)c1cc(-c2cncc(-c3cc(NC(=O)c4cc(C(F)(F)F)cnn4)ccc3C)c2)ncn1 with Pa16c cells - pIC50?
Result: 5.00 to 6.00
